Where do the numbers come from? From patent US11873298B2.

# Target System: Ole1 (Saccharomyces cerevisiae, UniProt P21147)
# Construct: expressed in transfected cells; host or cells: S. cerevisiae ole1Δ strain (W303 pdr1Δ pdr3Δ background), plasmid pRS316 with TDH3 promoter and CYC1 terminator
# Sequence (P21147 whole entry): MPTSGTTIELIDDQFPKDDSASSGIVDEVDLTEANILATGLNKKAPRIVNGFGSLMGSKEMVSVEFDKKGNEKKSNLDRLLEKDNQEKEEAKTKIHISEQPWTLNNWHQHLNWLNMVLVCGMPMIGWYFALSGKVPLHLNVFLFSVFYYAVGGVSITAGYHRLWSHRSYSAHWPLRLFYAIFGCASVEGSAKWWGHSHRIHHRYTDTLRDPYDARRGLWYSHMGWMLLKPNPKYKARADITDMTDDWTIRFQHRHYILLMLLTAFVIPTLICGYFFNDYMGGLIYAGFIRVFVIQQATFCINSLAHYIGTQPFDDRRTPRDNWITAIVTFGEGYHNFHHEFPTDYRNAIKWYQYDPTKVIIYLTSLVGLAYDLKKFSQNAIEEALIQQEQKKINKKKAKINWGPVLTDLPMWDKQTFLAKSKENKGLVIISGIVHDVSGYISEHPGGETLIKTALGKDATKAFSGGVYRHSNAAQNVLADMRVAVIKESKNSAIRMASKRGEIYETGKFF
# Protocol: Growth inhibition of yeast strain expressing Ole1 as sole desaturase
# Type: cell-based
# Condition: yeast strain expressing Ole1 as sole desaturase
Exercise: for every item that follows, state its recorded OLE1 % Max Inhibition.
Reply numerically in %, unit not repeated.

# input Can you share its OLE1 % Max Inhibition? I mean this compound: Cc1nn(C)c2cc(-c3noc(C4CCN(C(=O)CC5CC5)CC4)n3)ccc12
# output 15.52

# input Given CCOc1ccc(-c2noc(C3CCN(C(=O)CNC(=O)c4ccccc4)CC3)n2)nc1OC , state its recorded OLE1 % Max Inhibition.
# output 4.55

# input # lookup: OLE1 % Max Inhibition of COc1ccc(-c2noc(C3CCN(C(=O)N4CCCCC4)CC3)n2)cc1OC
# output 85.34

# input Any idea what OLE1 % Max Inhibition was measured for CC1(C)CC(=O)c2c(O)cc(OCC(=O)NCCc3nc(-c4ccccc4)no3)cc2O1 ?
# output 103.20

# input # query: OLE1 % Max Inhibition of entry CCN(Cc1nc(-c2ccc3c(c2)N(CC)C(=O)CO3)no1)C(=O)Cc1cccc2ccccc12
# output 92.28

# input I would be grateful if you could share the reported OLE1 % Max Inhibition for Cn1c(=O)[nH]c2ccc(-c3noc(C4CCN(C(=O)CN5Cc6ccccc6C5=O)CC4)n3)cc21 .
# output 26.72

# input Quick check: OLE1 % Max Inhibition of CC(C)(CO)n1ncc2ccc(-c3noc(C4CCN(C(=O)CNC(=O)c5ccccc5)CC4)n3)cc21 ?
# output 98.14

# input For Cc1nn(C)c2cc(-c3noc(C4CCN(C(=O)CNC(=O)c5ccccc5)C4)n3)ccc12 (stereo not shown) , what is its reported OLE1 % Max Inhibition?
# output 3.74

# input Return reported OLE1 % Max Inhibition; argument: Cc1nn(C)c2cc(-c3noc(C4CCN(C(=O)CNC(=O)c5cccnc5)CC4)n3)ccc12
# output 4.80

# input Entry CCOc1ccc(-c2noc(N3CCC(C(=O)N4CCOC(c5ccccc5)C4)CC3)n2)cc1OC (stereo not shown) : reported OLE1 % Max Inhibition = ?
# output 3.16

# input # get_value(readout='OLE1 % Max Inhibition', item= Cc1nn(C)c2cc(-c3noc(C4CCN(C(=O)CC(C)(C)C)CC4)n3)ccc12 )
# output 8.71

# input Using the record for Cc1nn(C)c2cc(-c3noc(C4CCN(C(=O)c5cccc(F)c5)CC4)n3)ccc12 , report its OLE1 % Max Inhibition.
# output 12.40

# input Reported OLE1 % Max Inhibition, compound COc1ccc(-c2noc(C3CCN(C(=O)C(C)NC(=O)c4ccccc4)CC3)n2)cc1OC (stereo not shown) : ____
# output 4.80

# input OLE1 % Max Inhibition for Cc1nn(C)c2cc(-c3noc(N4C[C@H]5CN(C(=O)CNC(=O)c6ccccc6)C[C@H]5C4)n3)ccc12 ?
# output 5.39

# input Return reported OLE1 % Max Inhibition; argument: Cc1nn(C)c2cc(-c3noc(C4CCN(C(=O)CNC(=O)c5cc(Cl)ccc5C(F)(F)F)CC4)n3)ccc12
# output 21.9

# input Which OLE1 % Max Inhibition value is on record for CCOc1ccc(-c2noc(C3CCN(C(=O)C4CN(c5ccccc5)C(=O)CO4)CC3)n2)cc1OC (stereo not shown) ?
# output 84.04

# input Requested field: OLE1 % Max Inhibition. Item: Cc1nn(C)c2cc(-c3noc(C4CCN(C(=O)C5CC(=O)N(c6ccc(F)cc6)C5)CC4)n3)ccc12 (stereo not shown)
# output 4.70

# input // lookup OLE1 % Max Inhibition for O=C(NCC(=O)N1CCC(c2nc(-c3ccc4nsnc4c3)no2)CC1)c1ccccc1
# output 110.40

# input Report OLE1 % Max Inhibition for CCNCc1nc(-c2ccc3c(c2)N(CC)C(=O)CO3)no1 please.
# output 91.16

# input Entry Cc1nn(C)c2cc(-c3nc([C@@H]4C[C@H]5CC[C@@H](C4)N5C(=O)OC(C)(C)C)no3)ccc12 has what OLE1 % Max Inhibition?
# output 91.7

# input Value lookup for OLE1 % Max Inhibition; key = Cc1nn(C)c2cc(-c3noc(C4CCN(C(=O)CNC(=O)c5ccncc5)CC4)n3)ccc12
# output 2.96

# input Look up OLE1 % Max Inhibition for this compound: COc1ccc(-c2noc(C3CCN(C(=O)CNc4nccc5ccccc45)CC3)n2)cc1OC
# output 114.12

# input If you can, please state the reported OLE1 % Max Inhibition value of Cc1nn(C)c2cc(-c3noc(C4CCN(C(=O)CNC(=O)c5cc(F)ccc5C(F)(F)F)CC4)n3)ccc12 .
# output 14.7

# input What value of OLE1 % Max Inhibition has been reported for the following compound? Cc1ccc(N2CC(C(=O)N3CCC(c4nc(-c5ccc6c(C)nn(C)c6c5)no4)CC3)CC2=O)cn1 (stereo not shown)
# output 76.70

# input # OLE1 % Max Inhibition lookup, item Cc1nn(C)c2cc(-c3noc(C4CCN(C(=O)C5CC(=O)N(CC6COC6)C5)CC4)n3)ccc12 (stereo not shown)
# output 96.25

# input Recorded OLE1 % Max Inhibition for CCOc1cnc(-c2noc(C3CCN(C(=O)CNC(=O)c4ccccc4)CC3)n2)cc1OC , please?
# output 111.12

# input What OLE1 % Max Inhibition value was documented for this compound, O=C(C1CC(=O)N(c2cccc(Cl)c2)C1)N1CCC(c2nc(-c3cnn(C4COC4)c3)no2)CC1 (stereo not shown) ?
# output 88.9

# input Which OLE1 % Max Inhibition value belongs to CNC(=O)c1ccc(-c2noc(C3CCN(C(=O)[C@H]4CC(=O)N(c5ccccc5)C4)CC3)n2)cn1 ?
# output 27.85

# input What value of OLE1 % Max Inhibition has been reported for the following compound? CCOc1ccc(-c2noc(C3CCN(C(=O)CN4Cc5cccc(F)c5C4=O)CC3)n2)cc1OC
# output 7.39

# input Fill blank: measured OLE1 % Max Inhibition of the compound Cc1nn(C)c2cc(-c3noc(C4CCN(C(=O)C5CC(=O)N(c6ccc(F)cn6)C5)CC4)n3)ccc12 (stereo not shown) is ____.
# output 11.24

# input What does the record list as OLE1 % Max Inhibition for COc1ccc(-c2noc(C3CCN(C(=O)COCc4ccccc4)CC3)n2)cc1OC ?
# output 79.60
